- System: 217524-143-R1-J4-PDC spheroids with HUVEC/MSC, viability
- measurement protocol: Anticancer human tumor 217524-143-R1-J4-PDC patient-derived pancreatic carcinoma cell line growth inhibition [CLK]
- condition set: second compound 1 µM; first compound 1 µM; hits give low values
readout kind: viability, T/C (%)
Field: numeric (%). Do not append units.

Answered cases to consult:
{"columns": ["compound", "measured on", "viability, T/C (%)"],
 "data": [
  ["COc1c(OCCCN2CCOCC2)ccc2c3n(c(=NC(=O)c4cnc(N)nc4)nc12)CCN3 + CN1CCN(c2cc(C(=O)Nc3cc4cc(-c5cnn(C)c5)ccc4cn3)ccn2)CC1", "217524-143-R1-J4-PDC spheroids with HUVEC/MSC, viability", 0.49],
  ["COc1c(OCCCN2CCOCC2)ccc2c3n(c(=NC(=O)c4cnc(N)nc4)nc12)CCN3 + CNC(=O)c1ccc(Nc2nc(OC3CCCC3)c3c(-c4ccc5nc(C)oc5c4)c[nH]c3n2)c(OC)c1", "217524-143-R1-J4-PDC spheroids with HUVEC/MSC, viability", 1.77],
  ["O=C(c1cc(Cc2n[nH]c(=O)c3ccccc23)ccc1F)N1CCN(C(=O)C2CC2)CC1 + CNC(=O)c1ccc(Nc2nc(OC3CCCC3)c3c(-c4ccc5nc(C)oc5c4)c[nH]c3n2)c(OC)c1", "217524-143-R1-J4-PDC spheroids with HUVEC/MSC, viability", 32.3],
  ["C=C(F)C(=O)N1CCN(c2nc(OCC3CCCN3C)nc3c2CCN(c2cccc4cccc(Cl)c24)C3)CC1CC#N (stereo not given) + CN1CCN(c2cc(C(=O)Nc3cc4cc(-c5cnn(C)c5)ccc4cn3)ccn2)CC1", "217524-143-R1-J4-PDC spheroids with HUVEC/MSC, viability", 1.74]
]}

Shifting focus to the compound that follows.
Looking up CC(Nc1ccc2c(c1)OCCn1cc(N3C(=O)OCC3C(F)F)nc1-2)C(N)=O (stereo not given) + CNC(=O)c1ccc(Nc2nc(OC3CCCC3)c3c(-c4ccc5nc(C)oc5c4)c[nH]c3n2)c(OC)c1 , I found its viability, T/C recorded as 3.22

###

- Tested on: 217524-143-R1-J4-PDC spheroids with HUVEC/MSC, viability
- measurement protocol: Anticancer human tumor 217524-143-R1-J4-PDC cell line growth inhibition [CLK]; active = viability on the fitted dose curve at most 10% of control; inactive = the rest;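 note: spheroids exposed to agents for seven days before reading; 100% = DMSO vehicle control viability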
- condition set: second compound 0.316 µM; first compound 10 µM
Would you mind answering with one of these outcomes? y for active, n for inactive

Worked examples follow.
{"columns": ["compound", "cat"],
 "data": [
  ["CC(Nc1ccc2c(c1)OCCn1cc(N3C(=O)OCC3C(F)F)nc1-2)C(N)=O (stereo not given) + CNC(=O)c1ccc(Nc2nc(OC3CCCC3)c3c(-c4ccc5nc(C)oc5c4)c[nH]c3n2)c(OC)c1", "y"],
  ["O=C(c1cc(Cc2n[nH]c(=O)c3ccccc23)ccc1F)N1CCN(C(=O)C2CC2)CC1 + CNC(=O)c1ccc(Nc2nc(OC3CCCC3)c3c(-c4ccc5nc(C)oc5c4)c[nH]c3n2)c(OC)c1", "n"],
  ["Nc1ccn(C2OC(CO)C(O)C2(F)F)c(=O)n1 (stereo not given) + CN1CCN(c2cc(C(=O)Nc3cc4cc(-c5cnn(C)c5)ccc4cn3)ccn2)CC1", "n"]
]}

Lookup: Dear colleague, could you share the recorded outcome for C#Cc1c(F)ccc2cc(O)cc(-c3ncc4c(N5CC6CCC(C5)N6)nc(OCC56CCCN5CC(F)C6)nc4c3F)c12 (stereo not given) + CN1CCN(c2cc(C(=O)Nc3cc4cc(-c5cnn(C)c5)ccc4cn3)ccn2)CC1 when you have a moment?
Found: n

Lookup: Dear colleague, could you share the recorded outcome for COc1ccc([C@@H](O)c2cc(-c3ncnc4cc(N5CCOCC5)ccc34)c(F)cc2Cl)nn1 + CN1CCN(c2cc(C(=O)Nc3cc4cc(-c5cnn(C)c5)ccc4cn3)ccn2)CC1 when you have a moment?
Found: y

###

- System: 217524-143-R1-J4-PDC spheroids with HUVEC/MSC, viability
- measurement protocol: Anticancer human tumor 217524-143-R1-J4-PDC cell line growth inhibition [CLK]; active means viability on the fitted dose curve at most 10% of control; inactive means the rest;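 note: spheroids exposed to agents for seven days before reading; 100% = DMSO vehicle control viability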
- condition set: second compound 0.0316 µM; first compound 0.0949 µM
Would you mind answering with one of these outcomes? active, inactive

Worked examples follow.
{"columns": ["molecule", "cat"],
 "data": [
  ["CC(C)CC(NC(=O)C(Cc1ccccc1)NC(=O)c1cnccn1)B(O)O (stereo unspecified) + CNC(=O)c1ccc(Nc2nc(OC3CCCC3)c3c(-c4ccc5nc(C)oc5c4)c[nH]c3n2)c(OC)c1", "active"],
  ["C=CC(=O)Nc1cc(Nc2nccc(-c3cn(C)c4ccccc34)n2)c(OC)cc1N(C)CCN(C)C + CNC(=O)c1ccc(Nc2nc(OC3CCCC3)c3c(-c4ccc5nc(C)oc5c4)c[nH]c3n2)c(OC)c1", "inactive"],
  ["NC(=O)C(=Cn1cnc(-c2cc(C(F)(F)F)cc(C(F)(F)F)c2)n1)c1cncnc1 + CN1CCN(c2cc(C(=O)Nc3cc4cc(-c5cnn(C)c5)ccc4cn3)ccn2)CC1", "inactive"]
]}

Lookup: Dear colleague, could you share the recorded outcome for C=CC(=O)Nc1cc(Nc2nccc(-c3cn(C)c4ccccc34)n2)c(OC)cc1N(C)CCN(C)C + CN1CCN(c2cc(C(=O)Nc3cc4cc(-c5cnn(C)c5)ccc4cn3)ccn2)CC1 when you have a moment?
Found: inactive

Lookup: Dear colleague, could you share the recorded outcome for NC(=O)C(=Cn1cnc(-c2cc(C(F)(F)F)cc(C(F)(F)F)c2)n1)c1cncnc1 + CNC(=O)c1ccc(Nc2nc(OC3CCCC3)c3c(-c4ccc5nc(C)oc5c4)c[nH]c3n2)c(OC)c1 when you have a moment?
Found: inactive

Lookup: Dear colleague, could you share the recorded outcome for CC(C)CC(NC(=O)C(Cc1ccccc1)NC(=O)c1cnccn1)B(O)O (stereo unspecified) + CN1CCN(c2cc(C(=O)Nc3cc4cc(-c5cnn(C)c5)ccc4cn3)ccn2)CC1 when you have a moment?
Found: active

###

- System: 217524-143-R1-J4-PDC spheroids with HUVEC/MSC, viability
- measurement protocol: Anticancer human tumor 217524-143-R1-J4-PDC cell line growth inhibition [CLK]; active means viability on the fitted dose curve at most 10% of control; inactive means the rest;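 note: spheroids exposed to agents for seven days before reading; 100% = DMSO vehicle control viability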
- condition set: second compound 10 µM; first compound 0.0316 µM
Would you mind answering with one of these outcomes? active, inactive

Worked examples follow.
{"columns": ["molecule", "cat"],
 "data": [
  ["C=C(F)C(=O)N1CCN(c2nc(OCC3CCCN3C)nc3c2CCN(c2cccc4cccc(Cl)c24)C3)CC1CC#N (stereo unspecified) + CN1CCN(c2cc(C(=O)Nc3cc4cc(-c5cnn(C)c5)ccc4cn3)ccn2)CC1", "active"],
  ["Cn1ncnc1[C@H]1c2n[nH]c(=O)c3cc(F)cc(c23)N[C@@H]1c1ccc(F)cc1 + CNC(=O)c1ccc(Nc2nc(OC3CCCC3)c3c(-c4ccc5nc(C)oc5c4)c[nH]c3n2)c(OC)c1", "inactive"]
]}

Lookup: Dear colleague, could you share the recorded outcome for CCc1c2c(nc3ccc(O)cc13)-c1cc3c(c(=O)n1C2)COC(=O)[C@]3(O)CC + CNC(=O)c1ccc(Nc2nc(OC3CCCC3)c3c(-c4ccc5nc(C)oc5c4)c[nH]c3n2)c(OC)c1 when you have a moment?
Found: inactive

Lookup: Dear colleague, could you share the recorded outcome for C#Cc1c(F)ccc2cc(O)cc(-c3ncc4c(N5CC6CCC(C5)N6)nc(OCC56CCCN5CC(F)C6)nc4c3F)c12 (stereo unspecified) + CN1CCN(c2cc(C(=O)Nc3cc4cc(-c5cnn(C)c5)ccc4cn3)ccn2)CC1 when you have a moment?
Found: active

Lookup: Dear colleague, could you share the recorded outcome for CC(Nc1ccc2c(c1)OCCn1cc(N3C(=O)OCC3C(F)F)nc1-2)C(N)=O (stereo unspecified) + CNC(=O)c1ccc(Nc2nc(OC3CCCC3)c3c(-c4ccc5nc(C)oc5c4)c[nH]c3n2)c(OC)c1 when you have a moment?
Found: inactive

Lookup: Dear colleague, could you share the recorded outcome for C#Cc1c(F)ccc2cc(O)cc(-c3ncc4c(N5CC6CCC(C5)N6)nc(OCC56CCCN5CC(F)C6)nc4c3F)c12 (stereo unspecified) + CNC(=O)c1ccc(Nc2nc(OC3CCCC3)c3c(-c4ccc5nc(C)oc5c4)c[nH]c3n2)c(OC)c1 when you have a moment?
Found: inactive

Lookup: Dear colleague, could you share the recorded outcome for COC1C=CCC(C)C(C)S(=O)(=O)NC(=O)c2ccc3c(c2)N(CC2CCC21)CC1(CCCc2cc(Cl)ccc21)CO3 (stereo unspecified) + CNC(=O)c1ccc(Nc2nc(OC3CCCC3)c3c(-c4ccc5nc(C)oc5c4)c[nH]c3n2)c(OC)c1 when you have a moment?
Found: inactive

Lookup: Dear colleague, could you share the recorded outcome for Nc1ccn(C2OC(CO)C(O)C2(F)F)c(=O)n1 (stereo unspecified) + CN1CCN(c2cc(C(=O)Nc3cc4cc(-c5cnn(C)c5)ccc4cn3)ccn2)CC1 when you have a moment?
Found: active
